Tested on: CAKI-1 renal
Test: NCI tumour cell line growth inhibition, 48 h
Consider the following molecules; for each one, report its TGI.

Hello, I would appreciate it if you could give TGI for each entry below.
1. Cc1nc2ccc(Cl)cc2c2c1CCN2c1ccccc1
2. O=c1cc(NCc2ccncc2)[nH]c(=O)[nH]1
3. O=C(NNCc1ccc(Cl)cc1)Nc1cccc2ccccc12
4. COc1nc(NC2OC(COC(C)=O)C(OC(C)=O)C(OC(C)=O)C2OC(C)=O)c(-c2csc(N)n2)c(=O)n1C (configuration not stated)

1. 28.1 µM
2. > 100 µM
3. > 100 µM
4. > 100 µM

State the recorded TGI for every item in the following list.
1. Nc1ncnc2c1ncn2Cc1cccc(CCl)c1
2. NC1=NCC(CN2CCCC2)O1 (configuration not stated)

1: 37 µM; 2: > 100 µM

Could you report TGI for every entry in the following list?
1. O=c1[nH]c2ccccc2n1-c1n[nH]c2ccccc12
2. Cc1cc(Cl)cc2c1NC(=O)C2=O (tested in a mixture with another compound)
3. O=[N+]([O-])c1ccc(C(Nc2ccccc2)c2ccc3cccnc3c2O)cc1 (configuration not stated)
4. O=C(Nc1cccc(-n2cc(-c3ccncc3)c(-c3ccc(O)c(Cl)c3)n2)c1)c1cccc(C(F)(F)F)c1
5. N#Cc1nc(C#N)n(C(=O)c2ccccc2)c1NC(=O)c1ccccc1

> 100 µM
> 100 µM
> 62.3 µM
> 100 µM
> 100 µM

Batch of 5 molecules: report TGI for each.
1. CC(=O)/C(=C\c1ccc(Cl)c(Cl)c1)C(=O)C(C)CN(C)C (configuration not stated)
2. O=C(Nc1cccc(NC(=O)c2cc(=O)c3ccccc3o2)n1)c1cc(=O)c2ccccc2o1
3. CCN(CC)c1ccc2cc(-c3nc4ccccc4c(=O)[nH]3)c(=N)oc2c1
4. COc1cccc(NC(=O)C(=O)C(C(C)=O)c2nc3ccc(Cl)cc3[nH]c2=O)c1 (configuration not stated)
5. CC(C)OC1OC(CO)C(O)CC1n1cc(F)c(=O)[nH]c1=O (configuration not stated)

17.1 µM
> 100 µM
> 100 µM
> 100 µM
> 100 µM

Provide only the value of recorded TGI for COC(=O)C1=C(O)C(C(=O)OC)[C@]2(O)[C@H](C(=O)OC)[C@H]1C[C@@H](c1ccc([N+](=O)[O-])cc1)[C@H]2C(=O)OC (some centres not stated)
> 100 µM
